The reported measurements were obtained from paper PMC10397247.

- targetUnderTest: T1, 4H953-bA
- T1 chain: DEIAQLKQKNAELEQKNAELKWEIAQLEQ
- protocolNotes: two-hybrid library CCNG1;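 further: natural log of median RNA to DNA barcode read ratio; higher means stronger binding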
quantity: interaction score

binder="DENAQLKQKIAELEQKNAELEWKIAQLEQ [4H1845-bA]" quantity="interaction score" datavalue=-1.23

1 = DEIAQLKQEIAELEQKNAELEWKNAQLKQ [4H568-bA]
2 = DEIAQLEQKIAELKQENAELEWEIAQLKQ [4H338-bA]
3 = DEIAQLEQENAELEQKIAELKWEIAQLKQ [4H170-bA]
Order the records so the highest interaction score appears first and the lowest last. // format: requested-order list of labels
3, 2, 1
